The reported measurements were obtained from PubChem BioAssay AID2060335.

Test system: DU-145 multicell spheroids with HUVEC/MSC, viability
TEST_DESCRIPTION: Anticancer human tumor DU-145 cell line growth inhibition [IpAb];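 note: spheroids exposed to agents for seven days before measurement; percent of DMSO vehicle control viability so 100% = untreated level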
CONDITION_DETAILS: second compound 1 µM; first compound 3.16 µM; active compounds read low
TEST_READOUT: viability, T/C (%)

{"columns": ["COMPOUND", "EXPERIMENTAL_VALUE"],
 "data": [
  ["C=CCn1c(=O)c2cnc(Nc3ccc(N4CCN(C)CC4)cc3)nc2n1-c1cccc(C(C)(C)O)n1 + CC(C)NCC(C(=O)N1CCN(c2ncnc3c2C(C)CC3O)CC1)c1ccc(Cl)cc1", 14.3],
  ["CC1(C)CCC(CN2CCN(c3ccc(C(=O)NS(=O)(=O)c4ccc(NCC5CCOCC5)c([N+](=O)[O-])c4)c(Oc4cnc5[nH]ccc5c4)c3)CC2)=C(c2ccc(Cl)cc2)C1 + CCN1CCN(Cc2ccc(Nc3ncc(F)c(-c4cc(F)c5nc(C)n(C(C)C)c5c4)n3)nc2)CC1", 52.2],
  ["CC1(C)CCC(CN2CCN(c3ccc(C(=O)NS(=O)(=O)c4ccc(NCC5CCOCC5)c([N+](=O)[O-])c4)c(Oc4cnc5[nH]ccc5c4)c3)CC2)=C(c2ccc(Cl)cc2)C1 + CC(C)NCC(C(=O)N1CCN(c2ncnc3c2C(C)CC3O)CC1)c1ccc(Cl)cc1", 27.1]
]}

* * *

Parameter viability, T/C: see the listing below.
Test system: DU-145 multicell spheroids with HUVEC/MSC, viability
TEST_DESCRIPTION: Anticancer human tumor DU-145 cell line growth inhibition [IpAb];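 note: spheroids exposed to agents for seven days before measurement; percent of DMSO vehicle control viability so 100% = untreated level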
CONDITION_DETAILS: second compound 1 µM; first compound 0.1 µM; active compounds read low
TEST_READOUT: viability, T/C

{"columns": ["MOLECULE", "EXPERIMENTAL_VALUE"],
 "data": [
  ["Cn1nccc1Nc1nccc(-c2ccn(C(CO)c3ccc(Cl)c(F)c3)c(=O)c2)n1 (stereo not given) + CCN1CCN(Cc2ccc(Nc3ncc(F)c(-c4cc(F)c5nc(C)n(C(C)C)c5c4)n3)nc2)CC1", "68.2%"],
  ["COc1c(OCCCN2CCOCC2)ccc2c3n(c(=NC(=O)c4cnc(N)nc4)nc12)CCN3 + CC(C)NCC(C(=O)N1CCN(c2ncnc3c2C(C)CC3O)CC1)c1ccc(Cl)cc1", "10%"],
  ["Cn1ncc(Cl)c1-c1cc(C(=O)NC(CN)Cc2cccc(F)c2)sc1Cl (stereo not given) + CCN1CCN(Cc2ccc(Nc3ncc(F)c(-c4cc(F)c5nc(C)n(C(C)C)c5c4)n3)nc2)CC1", "52%"],
  ["C=CCn1c(=O)c2cnc(Nc3ccc(N4CCN(C)CC4)cc3)nc2n1-c1cccc(C(C)(C)O)n1 + CC(C)NCC(C(=O)N1CCN(c2ncnc3c2C(C)CC3O)CC1)c1ccc(Cl)cc1", "26.6%"],
  ["CC1(C)CCC(CN2CCN(c3ccc(C(=O)NS(=O)(=O)c4ccc(NCC5CCOCC5)c([N+](=O)[O-])c4)c(Oc4cnc5[nH]ccc5c4)c3)CC2)=C(c2ccc(Cl)cc2)C1 + CCN1CCN(Cc2ccc(Nc3ncc(F)c(-c4cc(F)c5nc(C)n(C(C)C)c5c4)n3)nc2)CC1", "72.8%"]
]}

* * *

Test system: DU-145 multicell spheroids with HUVEC/MSC, viability
TEST_DESCRIPTION: Anticancer human tumor DU-145 cell line growth inhibition [IpAb];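 note: spheroids exposed to agents for seven days before measurement; percent of DMSO vehicle control viability so 100% = untreated level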
CONDITION_DETAILS: second compound 1 µM; first compound 1 µM; active compounds read low
Note to self: use class 1 only for viability, T/C readings below 20%; a reading exactly at 20% still gets class 0.

{"columns": ["COMPOUND", "CLASS_NAME"],
 "data": [
  ["C=CC(=O)N1CCN(c2nc(=O)n(-c3c(C)ccnc3C(C)C)c3nc(-c4c(O)cccc4F)c(F)cc23)C(C)C1 (stereo unspecified) + CCN1CCN(Cc2ccc(Nc3ncc(F)c(-c4cc(F)c5nc(C)n(C(C)C)c5c4)n3)nc2)CC1", "class 0"],
  ["Cc1nc(NC(=O)N2CCCC2C(N)=O)sc1-c1ccnc(C(C)(C)C(F)(F)F)c1 (stereo unspecified) + CC(C)NCC(C(=O)N1CCN(c2ncnc3c2C(C)CC3O)CC1)c1ccc(Cl)cc1", "class 1"],
  ["Cn1nccc1Nc1nccc(-c2ccn(C(CO)c3ccc(Cl)c(F)c3)c(=O)c2)n1 (stereo unspecified) + CC(C)NCC(C(=O)N1CCN(c2ncnc3c2C(C)CC3O)CC1)c1ccc(Cl)cc1", "class 0"],
  ["COc1c(OCCCN2CCOCC2)ccc2c3n(c(=NC(=O)c4cnc(N)nc4)nc12)CCN3 + CC(C)NCC(C(=O)N1CCN(c2ncnc3c2C(C)CC3O)CC1)c1ccc(Cl)cc1", "class 1"],
  ["Cn1ncc(Cl)c1-c1cc(C(=O)NC(CN)Cc2cccc(F)c2)sc1Cl (stereo unspecified) + CC(C)NCC(C(=O)N1CCN(c2ncnc3c2C(C)CC3O)CC1)c1ccc(Cl)cc1", "class 0"],
  ["CC1(C)CCC(CN2CCN(c3ccc(C(=O)NS(=O)(=O)c4ccc(NCC5CCOCC5)c([N+](=O)[O-])c4)c(Oc4cnc5[nH]ccc5c4)c3)CC2)=C(c2ccc(Cl)cc2)C1 + CC(C)NCC(C(=O)N1CCN(c2ncnc3c2C(C)CC3O)CC1)c1ccc(Cl)cc1", "class 0"]
]}

* * *

System: DU-145 multicell spheroids with HUVEC/MSC, viability
TEST_DESCRIPTION: Anticancer human tumor DU-145 cell line growth inhibition [IpAb];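 note: spheroids exposed to agents for seven days before measurement; percent of DMSO vehicle control viability so 100% = untreated level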
CONDITION_DETAILS: second compound 0.1 µM; first compound 10 µM; active compounds read low
Please assign 0 (no) whenever viability, T/C is at or above 40%, and 1 (yes) whenever it is below.

{"columns": ["COMPOUND", "ASSAY_TARGET", "CLASS_NAME"],
 "data": [
  ["C=CCn1c(=O)c2cnc(Nc3ccc(N4CCN(C)CC4)cc3)nc2n1-c1cccc(C(C)(C)O)n1 + CC(C)NCC(C(=O)N1CCN(c2ncnc3c2C(C)CC3O)CC1)c1ccc(Cl)cc1", "DU-145 multicell spheroids with HUVEC/MSC, viability", "1 (yes)"],
  ["Cc1nc(NC(=O)N2CCCC2C(N)=O)sc1-c1ccnc(C(C)(C)C(F)(F)F)c1 (stereo not given) + CCN1CCN(Cc2ccc(Nc3ncc(F)c(-c4cc(F)c5nc(C)n(C(C)C)c5c4)n3)nc2)CC1", "DU-145 multicell spheroids with HUVEC/MSC, viability", "1 (yes)"],
  ["CC1(C)CCC(CN2CCN(c3ccc(C(=O)NS(=O)(=O)c4ccc(NCC5CCOCC5)c([N+](=O)[O-])c4)c(Oc4cnc5[nH]ccc5c4)c3)CC2)=C(c2ccc(Cl)cc2)C1 + CC(C)NCC(C(=O)N1CCN(c2ncnc3c2C(C)CC3O)CC1)c1ccc(Cl)cc1", "DU-145 multicell spheroids with HUVEC/MSC, viability", "1 (yes)"],
  ["Cc1nc(NC(=O)N2CCCC2C(N)=O)sc1-c1ccnc(C(C)(C)C(F)(F)F)c1 (stereo not given) + CC(C)NCC(C(=O)N1CCN(c2ncnc3c2C(C)CC3O)CC1)c1ccc(Cl)cc1", "DU-145 multicell spheroids with HUVEC/MSC, viability", "1 (yes)"],
  ["Cn1nccc1Nc1nccc(-c2ccn(C(CO)c3ccc(Cl)c(F)c3)c(=O)c2)n1 (stereo not given) + CC(C)NCC(C(=O)N1CCN(c2ncnc3c2C(C)CC3O)CC1)c1ccc(Cl)cc1", "DU-145 multicell spheroids with HUVEC/MSC, viability", "0 (no)"],
  ["Cn1ncc(Cl)c1-c1cc(C(=O)NC(CN)Cc2cccc(F)c2)sc1Cl (stereo not given) + CCN1CCN(Cc2ccc(Nc3ncc(F)c(-c4cc(F)c5nc(C)n(C(C)C)c5c4)n3)nc2)CC1", "DU-145 multicell spheroids with HUVEC/MSC, viability", "1 (yes)"],
  ["CCCS(=O)(=O)Nc1ccc(F)c(C(=O)c2c[nH]c3ncc(-c4ccc(Cl)cc4)cc23)c1F + CC(C)NCC(C(=O)N1CCN(c2ncnc3c2C(C)CC3O)CC1)c1ccc(Cl)cc1", "DU-145 multicell spheroids with HUVEC/MSC, viability", "0 (no)"],
  ["C=CC(=O)N1CCN(c2nc(=O)n(-c3c(C)ccnc3C(C)C)c3nc(-c4c(O)cccc4F)c(F)cc23)C(C)C1 (stereo not given) + CCN1CCN(Cc2ccc(Nc3ncc(F)c(-c4cc(F)c5nc(C)n(C(C)C)c5c4)n3)nc2)CC1", "DU-145 multicell spheroids with HUVEC/MSC, viability", "0 (no)"],
  ["Cn1nccc1Nc1nccc(-c2ccn(C(CO)c3ccc(Cl)c(F)c3)c(=O)c2)n1 (stereo not given) + CCN1CCN(Cc2ccc(Nc3ncc(F)c(-c4cc(F)c5nc(C)n(C(C)C)c5c4)n3)nc2)CC1", "DU-145 multicell spheroids with HUVEC/MSC, viability", "0 (no)"],
  ["CCCS(=O)(=O)Nc1ccc(F)c(C(=O)c2c[nH]c3ncc(-c4ccc(Cl)cc4)cc23)c1F + CCN1CCN(Cc2ccc(Nc3ncc(F)c(-c4cc(F)c5nc(C)n(C(C)C)c5c4)n3)nc2)CC1", "DU-145 multicell spheroids with HUVEC/MSC, viability", "0 (no)"]
]}
